assay_system: HLA-A*29:02 (human, UniProt P04439 25-308)
assay_text: in vitro peptide-MHC affinity measurement
reported_metric: IC50 (nM)

{"binder": "ALSDLALHF", "IC50 (nM)": 6}

A: YLPALKVEY
B: HFLDRHLVF
QUERY: Hi there! Just curious which has the higher IC50 between A and B . // respond with label for picked entry
RESULT: A

The origin of these recorded values is patent US20210104294A1.
